FYI, the data here is from paper PMC6457526.

biological target: LftR L69A (Listeria monocytogenes, UniProt Q8Y923 1-108, L69A); test: fluorescence polarization; FP: 28-mer OP-1 with 5' fluorescein, ex 485 nm / em 535 nm, single-site fit (Prism 5); buffer, salt, pH and temperature of FP and EMSA not given in the material; settings: protein: recombinant; tags: C-terminal His6; chain copies: 2; label: 5' fluorescein on top strand
value type: Kd (nM)
Field: numeric (nM). Do not append units.

The recorded Kd for OP-1 28-mer dsDNA (FP) (dsDNA) DNA 1: GTATTACTATATACTTGTACCTAGTAAC DNA 2: GTTACTAGGTACAAGTATATAGTAATAC is 62.6
